These data points were gathered from patent US12559475B2.

assay: Stability testing of tetrazine compounds in 10% FBS/DMEM (HPLC residual amount); type: physicochemical; details: 6 h, 100 µM, 2.5% DMSO
Catalogue of compounds with associated residual amount of tetrazine compound
Please reply with the bare figure in % and do not write the unit itself.

Example results:
>  <COMPOUND>
COc1ccnc(-c2nnc(-c3ccccn3)nn2)c1C [Tz-2]

>  <VALUE_UNITS>
%

>  <residual amount of tetrazine compound>
55

$$$$
>  <COMPOUND>
c1ccc(-c2nnc(-c3ccccn3)nn2)nc1 [Tz-Py, reference compound]

>  <VALUE_UNITS>
%

>  <residual amount of tetrazine compound>
35

$$$$
>  <COMPOUND>
COc1ccnc(-c2nnc(-c3ccc(CNC(=O)OC(C)(C)C)cc3)nn2)c1C [Tz-11]

>  <VALUE_UNITS>
%

>  <residual amount of tetrazine compound>
99

$$$$
>  <COMPOUND>
COc1ccnc(-c2nnc(-c3ccc(NC(=O)OC(C)(C)C)cc3)nn2)c1C [Tz-10]

>  <VALUE_UNITS>
%

>  <residual amount of tetrazine compound>
99

$$$$
>  <COMPOUND>
COc1c(C)cnc(-c2nnc(-c3ccccc3)nn2)c1C [Tz-16]

>  <VALUE_UNITS>
%

>  <residual amount of tetrazine compound>
99

$$$$

## Input Using the record for COc1ccnc(-c2nnc(-c3ccccc3)nn2)c1C [Tz-1] , report its residual amount of tetrazine compound.
## Output 99
